Below: a set of entries, each annotated with reported pIC50.
- System: A549
- Assay Method Text: cells
- Format: functional, cell-based
- Protocol Conditions: Homo sapiens, A549, 72 h
Scale: negative log10 of molar concentration, which is what pIC50 denotes.

>  <Compound>
Nc1ccccc1NC(=O)c1ccc(CNC(=O)OCc2cccnc2)cc1

>  <Assay Target>
A549

>  <pIC50>
5.65

$$$$

CCC(C(=O)Nc1ccc(C(=O)NO)nc1)c1ccccc1 (stereo unspecified) yielded pIC50 of 5.26

O=C(/C=C/c1ccc(NC(=O)Cc2cccc3ccccc23)cn1)NO yielded pIC50 of 6.49

Nc1ccccc1NC(=O)/C=C/c1ccc(NC(=O)Cc2ccc3ccccc3c2)cn1 yielded pIC50 of 5.13

O=C(NO)c1ccc(NC(=O)C(Cc2ccccc2)c2ccccc2)cn1 (stereo unspecified) yielded pIC50 of 5.58

CC(C)C(C(=O)Nc1ccc(C(=O)NO)nc1)c1ccccc1 (stereo unspecified) yielded pIC50 of 5.43

O=C(/C=C/c1ccc(NC(=O)Cc2ccccc2)cn1)NO yielded pIC50 of 5.53

Nc1ccccc1NC(=O)/C=C/c1ccc(NC(=O)Cc2cccc3ccccc23)cn1 yielded pIC50 of 5.03

CC(C)C(C(=O)Nc1ccc(/C=C/C(=O)NO)nc1)c1ccccc1 (stereo unspecified) yielded pIC50 of 6.23

Nc1ccccc1NC(=O)/C=C/c1ccc(NC(=O)C(Cc2ccccc2)c2ccccc2)cn1 (stereo unspecified) yielded pIC50 of 5.37

O=C(/C=C/c1ccc(NC(=O)Cc2ccc3ccccc3c2)cn1)NO yielded pIC50 of 6.22
